# assay_text: Inhibition of gp120 (Gln 105 residue) in HIV-1 JR-FL infected in dog Cf2Th-CD4/CCR5 cells assessed as inhibition of viral entry incubated for 30 mins prior to infection and further incubated for 48 to 72 hrs in presence of firefly D-luciferin free acid and ATP by single-round infection luciferase assay
# Type: cell-based
# experimental_conditions: Human immunodeficiency virus 1, JR-FL
pIC50: −log10 of the molar value.
Returns one of yes (1) or no (0); yes (1) when pIC50 is >= 5.

Input: Please tell me: is the molecule CCCC[C@@H]1c2cc(CNC)ccc2[C@H](NC(=O)C(=O)Nc2ccc(Cl)c(F)c2)[C@H]1CNC(=N)N at or over 5 in terms of pIC50?
Output: no (0)

Input: Do the same for C=CCC[C@@H]1c2ccc(CNC)cc2[C@H](NC(=O)C(=O)Nc2ccc(Cl)c(F)c2)[C@H]1CNC(=N)N please
Output: no (0)

Input: Do the same for CNCc1ccc2c(c1)[C@@H](CC[C@H](O)CO)[C@H](CNC(=N)N)[C@H]2NC(=O)C(=O)Nc1ccc(Cl)c(F)c1 please
Output: no (0)

Input: Do the same for CNCc1ccc2c(c1)[C@H](NC(=O)C(=O)Nc1ccc(Cl)c(F)c1)[C@@H](CNC(=N)N)[C@@H]2CC[C@H](O)CO please
Output: no (0)

Input: Do the same for CNCc1ccc2c(c1)[C@@H](CCC(=O)CO)[C@H](CNC(=N)N)[C@H]2NC(=O)C(=O)Nc1ccc(Cl)c(F)c1 please
Output: yes (1)

###

# assay_text: Inhibition of gp120 (Gln 105 residue) in HIV-1 JR-FL infected in dog Cf2Th-CD4/CCR5 cells assessed as inhibition of viral entry incubated for 30 mins prior to infection and further incubated for 48 to 72 hrs in presence of firefly D-luciferin free acid and ATP by single-round infection luciferase assay
# Assay type: cell-based
# experimental_conditions: Human immunodeficiency virus 1, JR-FL
Kindly apply the following: YES if IC50 is less than 9 µM, NO in every other case.

Input: Given the entry CNCc1ccc2c(c1)[C@H](NC(=O)C(=O)Nc1ccc(Cl)c(F)c1)[C@@H](CNC(=N)N)[C@@H]2CCC(O)CO (stereo not given in full) , would its reported IC50 be below 9 µM?
Output: NO

Input: Do the same for CNCc1ccc2c(c1)[C@@H](CCC(O)CO)[C@H](CNC(=N)N)[C@H]2NC(=O)C(=O)Nc1ccc(Cl)c(F)c1 (mixture of isomers) please
Output: YES

Input: Do the same for CNCc1ccc2c(c1)[C@@H](CC[C@@H](O)CO)[C@H](CNC(=N)N)[C@H]2NC(=O)C(=O)Nc1ccc(Cl)c(F)c1 please
Output: NO

Input: Do the same for CNCc1ccc2c(c1)[C@H](NC(=O)C(=O)Nc1ccc(Cl)c(F)c1)[C@@H](CNC(=N)N)[C@@H]2CCCO please
Output: NO
